Molecular target: T1, IL-2 receptor βγ complex (human, UniProt P14784 27-551; P31785 23-369)
T1 sequence (looked up) 1: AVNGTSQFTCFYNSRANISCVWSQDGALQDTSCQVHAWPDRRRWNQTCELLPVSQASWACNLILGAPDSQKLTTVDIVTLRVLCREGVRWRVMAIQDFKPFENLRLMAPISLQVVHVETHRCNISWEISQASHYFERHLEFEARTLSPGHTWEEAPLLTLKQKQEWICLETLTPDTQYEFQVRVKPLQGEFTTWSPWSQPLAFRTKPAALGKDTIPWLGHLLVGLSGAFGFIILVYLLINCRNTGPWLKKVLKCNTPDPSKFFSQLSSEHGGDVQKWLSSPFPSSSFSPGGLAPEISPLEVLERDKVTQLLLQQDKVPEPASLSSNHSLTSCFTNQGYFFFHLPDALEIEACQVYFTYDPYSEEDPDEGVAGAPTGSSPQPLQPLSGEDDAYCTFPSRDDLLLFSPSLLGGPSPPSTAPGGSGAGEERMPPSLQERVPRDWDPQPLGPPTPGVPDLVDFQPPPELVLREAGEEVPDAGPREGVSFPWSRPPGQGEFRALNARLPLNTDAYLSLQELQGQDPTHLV
T1 sequence (looked up) 2: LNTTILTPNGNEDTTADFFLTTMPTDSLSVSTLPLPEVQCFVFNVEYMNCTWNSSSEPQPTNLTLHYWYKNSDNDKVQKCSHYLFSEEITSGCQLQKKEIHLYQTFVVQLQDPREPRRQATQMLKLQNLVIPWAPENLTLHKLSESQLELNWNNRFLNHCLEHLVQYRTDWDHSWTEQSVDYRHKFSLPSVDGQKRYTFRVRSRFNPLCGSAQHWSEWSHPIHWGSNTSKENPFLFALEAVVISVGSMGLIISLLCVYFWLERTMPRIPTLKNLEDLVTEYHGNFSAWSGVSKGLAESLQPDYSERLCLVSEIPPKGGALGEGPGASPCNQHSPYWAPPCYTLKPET
Assay: cell-based or functional assay
[ ]: non-standard residue; d: D form. 8x polyethylene glycol‑amino = O-(8x polyethylene glycol-amino)-tyrosine, SITE 45; 9x polyethylene glycol‑azido = O-(9x polyethylene glycol-azido)-tyrosine, SITE 42; Ygp = O-(8x polyethylene glycol-amino)-tyrosine (Tyr, amino-capped PEG8); Yn3 = O-(9x polyethylene glycol-azido)-tyrosine (Tyr, azide-capped PEG9); hSer = N[C@@H](CCO)C(=O)O; Nle = CCCC[C@H](N)C(=O)O
measurement label: Average EC50, pSTAT5 Assay in NK cells (nM)
// units = nM; emit number, no label

>  <binder>
CMP-315, uPa cleaved molecule (ligand, also: uPa cleavage product, not given here as a sequence, Lys23 side-chain attachment remnant unknown) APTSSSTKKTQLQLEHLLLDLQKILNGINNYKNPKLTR[Nle]L[hSer]Y(9x polyethylene glycol‑azido)KFY(8x polyethylene glycol‑amino)[Nle]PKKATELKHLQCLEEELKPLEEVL[hSer]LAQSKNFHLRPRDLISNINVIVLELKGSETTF[hSer]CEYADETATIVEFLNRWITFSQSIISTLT

>  <display unit>
nM

>  <Average EC50, pSTAT5 Assay in NK cells>
0.335

$$$$

Query :: Which Average EC50, pSTAT5 Assay in NK cells is listed for CMP-138, MMP2 cleaved molecule (ligand, ends and bridges not checked; also: cleaved by MMP2, cleavage product not defined, N-terminal PEG4 link and Glu29 side-chain attachment of the cleavable peptide not defined) APTSSSTKKTQLQLEHLLLDLQ[Nle]ILNGIENYKNPKLTR[Nle]L[hSer][Yn3]KF[Ygp][Nle]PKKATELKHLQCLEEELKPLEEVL[hSer]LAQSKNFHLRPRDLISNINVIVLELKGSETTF[hSer]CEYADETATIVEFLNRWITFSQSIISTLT ?
Result :: 0.288
